System: Human immunodeficiency virus 1
Test: Antiviral activity against HIV1 VB59 infected in human TZM-bl cells incubated for 48 hrs by bright Glo-luciferase reporter gene assay
Format: functional, organism-based
Stated conditions: Human immunodeficiency virus 1, VB59, TZM-bl
Measured IC50 values are reported for all entries that follow.
# value in µM; strip the unit string

Consider the worked cases shown below.
INSERT INTO assay_data (mol, assay_target, reported_result) VALUES
  ('COc1cccc(-n2ncc3c(=O)[nH]c(C)cc32)c1', 'Human immunodeficiency virus 1', 247),
  ('Cc1cc2c(cnn2-c2cccc(Br)c2)c(=O)[nH]1', 'Human immunodeficiency virus 1', 139),
  ('Cc1cc2c(cnn2-c2cccc(C(F)(F)F)c2)c(=O)[nH]1', 'Human immunodeficiency virus 1', 128);

Query: Field request: IC50 | item: `Cc1cc2c(cnn2-c2ccc(Br)cc2)c(=O)[nH]1`
Response: 138

Query: Field request: IC50 | item: `Cc1cc2c(cnn2-c2ccc(C)c(C)c2)c(=O)[nH]1`
Response: 126

Query: Field request: IC50 | item: `Cc1cc2c(cnn2-c2ccccc2)c(=O)[nH]1`
Response: 121

Query: Field request: IC50 | item: `Cc1cc(C)cc(-n2ncc3c(=O)[nH]c(C)cc32)c1`
Response: 3.67

Query: Field request: IC50 | item: `Cc1ccc(-n2ncc3c(=O)[nH]c(C)cc32)cc1`
Response: 58.1

====

Test: Cytotoxicity against human PBMC cells assessed as reduction in cell viability incubated for 5 days by MTT assay
Type: cell-based
Measured CC50 at 120 h values are reported for all entries that follow.
# value in µM; strip the unit string

Consider the worked cases shown below.
INSERT INTO assay_data (mol, readout_units, reported_result) VALUES
  ('Cc1ccnc2c1NC(=O)c1cccnc1N2C1CC1', 'µM', 1000),
  ('Cc1cc(C)cc(-n2ncc3c(=O)[nH]c(C)cc32)c1', 'µM', 592);

Then this compound:
Query: Field request: CC50 at 120 h | item: `Cc1cn([C@H]2C[C@H](N=[N+]=[N-])[C@@H](CO)O2)c(=O)[nH]c1=O`
Response: 1070

====

System: Human immunodeficiency virus 1
Test: Antiviral activity against HIV1 VB59 infected in human TZM-bl cells incubated for 48 hrs by bright Glo-luciferase reporter gene assay
Assay type: functional, organism-based
Stated conditions: Human immunodeficiency virus 1, VB59, TZM-bl
pIC50: −log10 of the molar value.
Measured endpoint: pIC50

INSERT INTO assay_data (mol, measured_endpoint, reported_result) VALUES
  ('Cc1cc2c(cnn2-c2cc(F)cc(F)c2)c(=O)[nH]1', 'pIC50', '< 3.72');

Query: Field request: pIC50 | item: `Cc1cc2c(cnn2-c2ccc(C(F)(F)F)cc2)c(=O)[nH]1`
Response: < 3.77

====

Tested on: Human immunodeficiency virus 1
Test: Antiviral activity against HIV1 VB59 infected in human TZM-bl cells incubated for 48 hrs by bright Glo-luciferase reporter gene assay
Assay type: functional, organism-based
Stated conditions: Human immunodeficiency virus 1, VB59, TZM-bl
Measured endpoint: IC50

Consider the worked cases shown below.
INSERT INTO results (mol, measured_endpoint, reported_result) VALUES
  ('Cc1cc2c(cnn2-c2cc(Cl)cc(Cl)c2)c(=O)[nH]1', 'IC50', '> 171 µM'),
  ('Cc1cc2c(cnn2-c2ccc(F)c(F)c2)c(=O)[nH]1', 'IC50', '> 192 µM'),
  ('Cc1cc2c(cnn2-c2ccc(Cl)cc2)c(=O)[nH]1', 'IC50', '> 193 µM'),
  ('Cc1cc2c(cnn2-c2cccc(F)c2)c(=O)[nH]1', 'IC50', '> 206 µM'),
  ('Cc1cc2c(cnn2-c2ccc(Cl)c(Cl)c2)c(=O)[nH]1', 'IC50', '> 171 µM');

Then this compound:
Query: Field request: IC50 | item: `Cc1cc2c(cnn2-c2ccc(C(C)(C)C)cc2)c(=O)[nH]1`
Response: > 178 µM
